FYI, the data here is from patent US8299093B2.

# Test system: HIV-1 BaL
# assay remarks: Antiviral activity (p24) against HIV-1 BaL in PBMC
# Format: cell-based
# test conditions: Human immunodeficiency virus 1, subtype B, R5, laboratory strain
pIC50: −log10 of the molar value.
pIC50 listing for selected compounds.

Examples from the recorded data:
compound	endpoint name	measured value
Cc1cc(=O)n2c3ccccc3n(CC(O)CNc3ccc(F)cc3)c2c1C#N (stereo not drawn)	pIC50	> 5.00
Cc1cc(=O)n2c3ccccc3n(CC(O)CN3CCN(C(c4ccccc4)c4ccccc4)CC3)c2c1C#N (stereo not drawn)	pIC50	> 5.00

# evaluate next
Bench note, HIV-1 BaL: entry Cc1ccc2[nH]c(=O)c(CN(Cc3ccco3)C(=O)c3ccc(Cl)cc3)cc2c1 , its pIC50 = > 5.00

---

# System: HIV-1RF/L-323-12-3
# assay remarks: Antiviral activity (p24) against protease resistant isolate HIV-1RF/L-323-12-3 in MT-2
# Assay type: cell-based
# test conditions: Human immunodeficiency virus 1
pIC50: −log10 of the molar value.
Each entry below carries its recorded pIC50.

molecule	pIC50
Cc1cc(=O)n2c3ccccc3n(CC(O)CNc3ccc(F)cc3)c2c1C#N (centres unmarked)	> 5.00

Next up:
Noted for Cc1ccc2[nH]c(=O)c(CN(Cc3ccco3)C(=O)c3ccc(Cl)cc3)cc2c1 : its pIC50 reads > 5.00

---

# Tested on: HIV-1 BCF02
# assay remarks: Antiviral activity (p24) against primary isolate BCF02 in PBMC
# Assay type: cell-based
# test conditions: Human immunodeficiency virus 1, BCF02, Group (O), R5, primary isolate
endpoint name: IC50

molecule	endpoint name	measured value
Cc1ccc2[nH]c(=O)c(CN(Cc3ccco3)C(=O)c3ccc(Cl)cc3)cc2c1	IC50	< 10 µM
Cc1cc(=O)n2c3ccccc3n(CC(O)CNc3ccc(F)cc3)c2c1C#N (stereo not drawn)	IC50	> 10 µM

Now consider a different molecule.
Documented IC50 of Cc1cc(=O)n2c3ccccc3n(CC(O)CN3CCN(C(c4ccccc4)c4ccccc4)CC3)c2c1C#N (stereo not drawn) : < 10 µM

---

# System: HIV-1
# assay remarks: Inhibition of HIV-1 infectivity (p24 ELISA) in MT-2 cells, laboratory-adapted HIV-1 strains
# Format: cell-based
# test conditions: Human immunodeficiency virus 1, MT2, 96 h, Table 2, formula II; MT-2 cells, p24 ELISA day 4
pIC50: −log10 of the molar value.
Known pIC50 of a selection of compounds

Sample records with pIC50:
compound	pIC50
Cc1ccccc1N1CCN(CC(O)Cn2c3ccccc3n3c(=O)cc(C)c(C#N)c23)CC1 (stereo not drawn)	< 5.00
Cc1cc(=O)n2c3ccccc3n(CC(O)CNc3ccc(C(C)C)cc3)c2c1C#N (stereo not drawn)	> 5.00
Cc1cc(=O)n2c3ccccc3n(CC(O)CNc3ccc(Cl)cc3)c2c1C#N (stereo not drawn)	< 5.00
Cc1cc(=O)n2c3ccccc3n(CC(O)CN3CCC(C)CC3)c2c1C#N (stereo not drawn)	< 5.00
CCOc1ccc(NCC(O)Cn2c3ccccc3n3c(=O)cc(C)c(C#N)c23)cc1 (stereo not drawn)	< 5.00

API: the following record is the query input.
The measured pIC50 associated with COc1ccc(NCC(O)Cn2c3ccccc3n3c(=O)cc(C)c(C#N)c23)cc1 (stereo not drawn) reads < 5.00

---

Overview of reported CC50 at 4 days across a group of compounds:
# assay remarks: XTT cytotoxicity assay in MT-2 cells
# Assay type: cell-based
# test conditions: human, MT-2 cells, 4 days

compound	CC50 at 4 days
Cc1cc(=O)n2c3ccccc3n(CC(O)CNc3ccc(F)cc3)c2c1C#N (stereo not drawn)	> 50 µM
Cc1ccc2[nH]c(=O)c(CN(Cc3ccco3)C(=O)c3ccc(Cl)cc3)cc2c1	> 50 µM

Consider the additional compound presented here.
The compound listed as Cc1cc(=O)n2c3ccccc3n(CC(O)CN3CCN(C(c4ccccc4)c4ccccc4)CC3)c2c1C#N (stereo not drawn) shows CC50 at 4 days equal to < 50 µM
